# assay.system: human adenosine A1 receptor (Homo sapiens, UniProt P30542)
# Construct: expressed in transfected cells; host or cells: CHO cells, semliki forest virus expression system; membrane preparation
# Sequence (P30542 whole entry): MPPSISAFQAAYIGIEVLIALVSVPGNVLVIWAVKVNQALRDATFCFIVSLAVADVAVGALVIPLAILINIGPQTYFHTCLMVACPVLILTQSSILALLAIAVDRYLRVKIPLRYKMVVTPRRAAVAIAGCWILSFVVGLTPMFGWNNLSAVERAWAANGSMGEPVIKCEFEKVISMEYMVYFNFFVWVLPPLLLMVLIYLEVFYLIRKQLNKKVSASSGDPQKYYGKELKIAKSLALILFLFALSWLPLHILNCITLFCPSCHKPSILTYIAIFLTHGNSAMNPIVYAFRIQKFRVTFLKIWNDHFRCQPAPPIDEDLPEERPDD
# measurement.protocol: Human adenosine A1 receptor [3H]-DPCPX binding assay (SPA)
# measurement.setup: recombinant receptor in CHO cell membranes; [3H]-DPCPX 0.6 nM; Ki by Cheng-Prussoff; read-out: hA1 (pKi) (converted)
measured.attribute: Ki

{"columns": ["compound", "measured.attribute", "obs.value"],
 "data": [
  ["COc1ccc(N2CCOCC2)c2sc(-c3nc4c([nH]3)CCN(C(=O)c3ccccc3C)CC4)nc12 [Example 28]", "Ki", "1580 nM"],
  ["COc1ccc(N2CCOCC2)c2sc(-c3ncc[nH]3)nc12 [Example 1]", "Ki", "1000 nM"],
  ["COc1ccc(N2CCOCC2)c2sc(-c3nc4ccccc4[nH]3)nc12 [Example 2]", "Ki", "158 nM"],
  ["COc1ccc(N2CCOCC2)c2sc(-c3nc4c([nH]3)CCN(C(=O)c3ccc(F)cc3)CC4)nc12 [Example 26]", "Ki", "631 nM"]
]}
